Hello, the source for this data is the supplement of paper PMC10307832, in case you need it.

test system: NCI-H520; test: relative viability (nuclei count vs DMSO), 5 days (fraction); higher = more cells survive; details: first compound 500 µM
# relative viability listing for each entry below
Kindly provide the number alone.

Solved cases below.
compound | relative viability
O=C(O)CCCCC(CCSCc1ccccc1)SCc1ccccc1 (stereo not given) [CPI-613] + CCNC(=O)c1noc(-c2cc(C(C)C)c(O)cc2O)c1-c1ccc(CN2CCOCC2)cc1 [Luminespib] (partner 0.01 µM) | 0.181
O=C(O)CCCCC(CCSCc1ccccc1)SCc1ccccc1 (stereo not given) [CPI-613] + Nc1nc2[nH]cc(CCc3ccc(C(=O)N[C@@H](CCC(=O)O)C(=O)O)cc3)c2c(=O)[nH]1 [Pemetrexed] (partner 0.2 µM) | 0.155
O=C(O)CCCCC(CCSCc1ccccc1)SCc1ccccc1 (stereo not given) [CPI-613] + CC(=O)c1c(C)c2cnc(Nc3ccc(N4CCNCC4)cn3)nc2n(C2CCCC2)c1=O [Palbociclib] (partner 0.5 µM) | 0.117
O=C(O)CCCCC(CCSCc1ccccc1)SCc1ccccc1 (stereo not given) [CPI-613] + Nc1ncn([C@H]2C[C@H](O)[C@@H](CO)O2)c(=O)n1 [Decitabine] (partner 2 µM) | 0.149

Please examine the following record next.
In: Any idea what relative viability was measured for O=C(O)CCCCC(CCSCc1ccccc1)SCc1ccccc1 (stereo not given) [CPI-613] + COc1cc2c(Oc3ccc(NC(=O)C4(C(=O)Nc5ccc(F)cc5)CC4)cc3F)ccnc2cc1OCCCN1CCOCC1 [Foretinib] (partner 0.25 µM) ?
Out: 0.142

* * *

system: NCI-H2342; assay: relative viability (nuclei count vs DMSO), 5 days (fraction); higher = more cells survive; details: first compound 0.8 µM
property.measured: relative viability
Enter a number only.

compound | relative viability
O=c1[nH]c2ccccc2n1C1CCN(CCCC(c2ccc(F)cc2)c2ccc(F)cc2)CC1 [Pimozide] + Cc1cc(Nc2cc(N3CCN(C)CC3)nc(Sc3ccc(NC(=O)C4CC4)cc3)n2)n[nH]1 [Tozasertib] (partner 0.1 µM) | 0.505

Next compound, relative viability to be filled in.
In: I have this compound here, O=c1[nH]c2ccccc2n1C1CCN(CCCC(c2ccc(F)cc2)c2ccc(F)cc2)CC1 [Pimozide] + CC(=O)c1c(C)c2cnc(Nc3ccc(N4CCNCC4)cn3)nc2n(C2CCCC2)c1=O [Palbociclib] (partner 0.5 µM) , and I need its recorded relative viability.
Out: 0.436

* * *

The entries below come with measured relative viability values attached.
tested on: EPLC-272H; assay: relative viability (nuclei count vs DMSO), 5 days (fraction); higher = more cells survive; settings: first compound 0.08 µM
Please respond with just the number, no unit label.

Some entries whose results are on file:
compound | relative viability
Cc1cnc(-c2cnc(NCCNc3ccc(C#N)cn3)nc2-c2ccc(Cl)cc2Cl)[nH]1 + C[C@@H](Oc1cc(-c2cnn(C3CCNCC3)c2)cnc1N)c1c(Cl)ccc(F)c1Cl [Crizotinib] (partner 1 µM) | 0.928
O=c1[nH]c2ccccc2n1C1CCN(CCCC(c2ccc(F)cc2)c2ccc(F)cc2)CC1 [Pimozide] + COc1cc2c(Oc3ccc(NC(=O)C4(C(=O)Nc5ccc(F)cc5)CC4)cc3F)ccnc2cc1OCCCN1CCOCC1 [Foretinib] (partner 0.25 µM) | 0.631
O=c1[nH]c2ccccc2n1C1CCN(CCCC(c2ccc(F)cc2)c2ccc(F)cc2)CC1 [Pimozide] + NC(=O)Nc1cc(-c2cccc(F)c2)sc1C(=O)N[C@H]1CCCNC1 [AZD7762] (partner 0.2 µM) | 0.229

Okay, next one:
In: Query the reported relative viability for EPLC-272H; item: Cc1cnc(-c2cnc(NCCNc3ccc(C#N)cn3)nc2-c2ccc(Cl)cc2Cl)[nH]1 + CC(C)C[C@H](NC(=O)[C@H](Cc1ccccc1)NC(=O)c1cnccn1)B(O)O [Bortezomib] (partner 0.002 µM)
Out: 0.938
